Test: qHTS for Inhibitors of human tyrosyl-DNA phosphodiesterase 1 (TDP1): qHTS in cells in presence of CPT; note: nearly all actives have a fitted effect of over 55% in size
Settings: chicken DT40 Tdp1-/-;hTDP1 cells + 20 nM CPT, ATP luminescence, 48 h; series mostly up to 46.2 µM
Among all 420,000 compounds or so, about 50,000 (12%) were called active. Another 26% or so got no clear call; they are omitted. Calls come from the whole dose curve; as a rule, active = well fitted inhibition curve with a large enough effect; inconclusive = small, poorly fitted or top-dose-only effect; inactive = flat fitted curve, though single readings scatter. What follows is part of a selection rich in actives, with near analogues and random picks from the rest.
Classes used: 1 = active, 0 = inactive

                              smiles_record  class_label
0  Cc1cc(NC(=O)CC(C)C)cc(-c2nc3ncccc3o2)c1O            0
1       c1ccc2c(CSCc3nc4ccccc4[nH]3)cccc2c1            1
2  O=C(O)c1ccc(Cn2c(=S)[nH]c3cc(Cl)ccc3c2=O)cc1            0
3  CCN(CC)CCNC(=O)c1ccc(NS(=O)(=O)c2ccc3c(c2)OCCO3)cc1            0
4  Cc1ccc(NC(=O)COC(=O)CNC(=O)c2ccc(Cl)cc2Cl)cc1S(=O)(=O)N1CCOCC1            0
